Molecular target: T1, O6-bS
T1 chain: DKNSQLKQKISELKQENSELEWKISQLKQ
Assay: two-hybrid library CCNG1;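 also: natural log of median RNA to DNA barcode read ratio; higher means stronger binding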
# interaction score per entry
Number, no unit, nothing else.

Look over these answered cases.
DKNSQLKQKISELKQKNSELKWEISQLEQ [O13-bS] ... -0.545
DKISQLKQEISELEQKNSELKWKNSQLKQ [O4-bS] ... 0.143
DENSQLEQKNSELKQKISELKWKISQLKQ [O2-bS] ... -1.1
DENQELEKEIEELERKNWELKKEIQELER [4H1081-bH] ... 1.86
DKNSQLKQENSELEQKISELKWKISQLKQ [O10-bS] ... -0.631
DEISQLEQENSELEQKISELKWENSQLEQ [O15-bS] ... -0.0139

Input: Output interaction score of DKNSQLKQENSELEQEISELEWEISQLEQ [O1-bS]
Output: -0.716

Input: Output interaction score of DENSQLEQEISELEQKNSELKWEISQLEQ [O5-bS]
Output: 2.08

Input: Output interaction score of DEISQLEQKISELKQKNSELKWKNSQLKQ [O12-bS]
Output: -0.702

Data origin: paper PMC10397247
